Listed here: molecules with reported pIC50 for Epidermal growth factor receptor (Homo sapiens).
Lab note — pIC50 values are minus log10 of concentrations in M.

Previously resolved entries follow.
[[record]]
chemical_string = "C=CC(=O)N1CCC[C@@H](n2nc(-c3ccccc3)c3c(N)ncnc32)C1"
property_name = "pIC50"
observed_value = 6.85

[[record]]
chemical_string = "C=CC(=O)N1CCC[C@@H](n2nc(C#CC3CCCC3)c3c(N)ncnc32)C1"
property_name = "pIC50"
observed_value = 6.12

[[record]]
chemical_string = "C=CC(=O)N1CCC[C@@H](n2nc(-c3cccc4ccccc34)c3c(N)ncnc32)C1"
property_name = "pIC50"
observed_value = 7.22

[[record]]
chemical_string = "CN(C)C/C=C/C(=O)N1CCC[C@@H](n2nc(-c3cccc(C(F)(F)F)c3)c3c(N)ncnc32)C1"
property_name = "pIC50"
observed_value = 5.14

[[record]]
chemical_string = "C#Cc1nn([C@@H]2CCCN(C(=O)C=C)C2)c2ncnc(N)c12"
property_name = "pIC50"
observed_value = 5.82


Q. Hello, I am looking for reported pIC50 with Epidermal growth factor receptor (Homo sapiens) for C=CC(=O)N1CCC[C@@H](n2nc(-c3ccc4ccccc4c3)c3c(N)ncnc32)C1 . Could you help?
A. 7.70

Q. Hello, I am looking for reported pIC50 with Epidermal growth factor receptor (Homo sapiens) for CCC(=O)N1CCC[C@@H](n2nc(-c3ccccc3)c3c(N)ncnc32)C1 . Could you help?
A. 5.14
